- System: HOP-18
- test-method-notes: NCI tumour cell line growth inhibition, 48 h
The source made the active and inactive calls. No stated cut-off is given here; in the data, active = GI50 up to about 1.1 µM and inactive = higher.
measure: GI50

Q) Consider the compound CCCCS(=O)(=O)Nc1ccc(Nc2c3ccccc3nc3ccccc23)c(OC)c1 . State its measured GI50.
A) 7.52 µM (inactive)

Q) Consider the compound FC(F)(F)c1nc2ccc3[nH]c4c(-c5ccccc5)nccc4c3c2[nH]1 . State its measured GI50.
A) > 100 µM (inactive)

Q) Consider the compound CC(=O)OC12CCCCC1C1(CCCC1)NC2=O (configuration not stated) . State its measured GI50.
A) > 100 µM (inactive)

Q) Consider the compound Cc1ccccc1-n1c2nc(=O)n(C)c(=O)c-2nc2ccccc21 . State its measured GI50.
A) 10.5 µM (inactive)

Q) Consider the compound O=C(NO)C12C3C4C1C1C2C3C41C(=O)NO (configuration not stated) . State its measured GI50.
A) > 100 µM (inactive)

Q) Consider the compound COC(=O)c1cc(=O)nc2cc3cccccc3n12 . State its measured GI50.
A) > 100 µM (inactive)

Q) Consider the compound C=C1C(=O)C23C(O)C1CC[C@H]2C12CCCC(C)(COC(C)=O)[C@H]1[C@H](O)[C@]3(O)OC2 (some centres not stated) . State its measured GI50.
A) 1.27 µM (inactive)

* * *

Overview of recorded GI50 for various compounds
- Test system: LOX IMVI
- test-method-notes: NCI tumour cell line growth inhibition, 48 h
Activity calls are given as the source filed them. Rule as the data show it: active = GI50 up to about 1.1 µM and inactive = higher.

Examples with answers:
[
  {
    "compound": "FC(F)(F)c1nc2ccc3[nH]c4c(-c5ccccc5)nccc4c3c2[nH]1",
    "result": "> 46.8 µM (inactive)"
  },
  {
    "compound": "C/C1=C\\C=C(\\C(C)C)CC/C(C(=O)O)=C\\CC/C(C)=C/CC1 [NEOCROTOCEMBRANEIC ACID]",
    "result": "20.5 µM (inactive)"
  },
  {
    "compound": "Cc1c2c(n3c(nc4ccccc43)c1C#N)SCC2",
    "result": "> 10 µM (inactive)"
  },
  {
    "compound": "COC1=C(OC)C(=O)C(Cc2c(-c3ccccc3)nc3sc(Cl)cn23)=C(C)C1=O",
    "result": "23.7 µM (inactive)"
  }
]

Now for the compound whose GI50 we want.
Q) Consider the compound c1ccc(/N=C2\c3ccccc3CN2c2ccccc2)cc1 . State its measured GI50.
A) > 100 µM (inactive)

* * *

- System: SF-268
- test-method-notes: NCI tumour cell line growth inhibition, 48 h
The source made the active and inactive calls. No stated cut-off is given here; in the data, active = GI50 up to about 1.1 µM and inactive = higher.
Could you please pick one outcome from this set? true (1) (active), false (0) (inactive)

[
  {
    "compound": "C=C1C(=O)OC2C1C(OC(=O)/C(C)=C/C)CC(O)(CCl)C1C(OC(C)=O)C=C(C)C21O (stereo unspecified)",
    "class-label": "false (0)"
  },
  {
    "compound": "CN(C)Cc1cc(C(=O)O)cc(CN(C)C)c1O",
    "class-label": "false (0)"
  },
  {
    "compound": "COc1ccc2oc(=N)c(C(=O)Nc3ccccn3)cc2c1",
    "class-label": "false (0)"
  },
  {
    "compound": "OC(C#CCN1CCCC1)(c1ccccc1)c1ccccc1Cl (stereo unspecified)",
    "class-label": "false (0)"
  }
]

Q) Hey, what did the test say about C[C@H]1CC(=O)C[C@@H]2CC[C@@H]3[C@H](CC[C@]4(C)C(OC(=O)c5cccc6c(=O)c7ccccc7[nH]c56)CC[C@@H]34)[C@]21C (stereo partly specified) ?
A) false (0)

Q) Hey, what did the test say about N=C1/C(=C/c2ccc(F)cc2)C(=O)N=C2SC=NN12 ?
A) false (0)

Q) Hey, what did the test say about CC1NCCc2c1[nH]c1cc(O)ccc21 (stereo unspecified) ?
A) false (0)

Q) Hey, what did the test say about [O-][S+]1c2ccccc2N=C(c2ccc(Cl)cc2)CC1c1cccs1 (stereo unspecified) ?
A) false (0)

Q) Hey, what did the test say about O=C(NCCCOC(=O)CCCCCCCCC(=O)OCCCNC(=O)NC(=O)c1c[nH]c(=O)[nH]c1=O)NC(=O)c1c[nH]c(=O)[nH]c1=O ?
A) false (0)

* * *

- Test system: SR
- test-method-notes: NCI tumour cell line growth inhibition, 48 h
Activity calls are given as the source filed them. No stated cut-off is given here; in the data, active = GI50 up to about 1.1 µM and inactive = higher.
Overview of recorded GI50 for various compounds

Examples with answers:
[
  {
    "compound": "CCOC(=O)Cc1[nH]c(C(=O)c2ccccc2)cc1C(=O)c1ccccc1",
    "measure": "GI50",
    "result": "38.4 µM (inactive)"
  },
  {
    "compound": "SC1=C2CCCCCC2=NC2(CCCCCC2)S1",
    "measure": "GI50",
    "result": "15.6 µM (inactive)"
  },
  {
    "compound": "C=C1C[C@]23CC[C@@H]4C(CO)(CO)CC(=O)C[C@]4(C)[C@@H]2CC[C@H]1C3",
    "measure": "GI50",
    "result": "> 100 µM (inactive)"
  },
  {
    "compound": "CCC(C)[C@H]1C(=O)N=C(N)N1C(=O)OCc1ccccc1 (some centres undefined)",
    "measure": "GI50",
    "result": "> 100 µM (inactive)"
  },
  {
    "compound": "CCC(CC)C(=O)OC[n+]1ccc(-c2c(COC(=O)NC(C)C)c(COC(=O)NC(C)C)c3n2CCC3)cc1",
    "measure": "GI50",
    "result": "36.7 µM (inactive)"
  },
  {
    "compound": "O=S(=O)(N/N=C/c1ccc(Cl)c(Cl)c1)c1ccccc1",
    "measure": "GI50",
    "result": "42.3 µM (inactive)"
  },
  {
    "compound": "C/C(CN1C(=O)c2ccccc2C1=O)=N\\NS(=O)(=O)c1ccc(Cl)cc1",
    "measure": "GI50",
    "result": "> 100 µM (inactive)"
  },
  {
    "compound": "CCCCCCOc1ccc(C(=O)N(C)O)cc1",
    "measure": "GI50",
    "result": "6.35 µM (inactive)"
  },
  {
    "compound": "CCOC(=O)C1(C#N)C(C#N)(C#N)C1(C#N)C#N",
    "measure": "GI50",
    "result": "88.5 µM (inactive)"
  },
  {
    "compound": "COc1cccc(C2c3cc4c(cc3OC(NNC(N)=O)C2C)OCO4)c1O (centres undefined)",
    "measure": "GI50",
    "result": "1.64 µM (inactive)"
  }
]

Q) Would you please give the reported GI50 of O=CN1CCN(c2ccc3ccc(O)nc3n2)CC1 with SR?
A) > 100 µM (inactive)

Q) Would you please give the reported GI50 of CCn1c(=O)c2c3cc(OC(C)=O)ccc3oc2c2ccc(OC(C)=O)cc21 with SR?
A) 36.3 µM (inactive)

Q) Would you please give the reported GI50 of CC(=O)OCC1OC(n2c(-c3ccccc3)c(/N=N/c3ccc(C)cc3)c(C)c(C#N)c2=S)C(OC(C)=O)C(OC(C)=O)C1OC(C)=O (centres undefined) with SR?
A) 8.99 µM (inactive)

Q) Would you please give the reported GI50 of CC(=O)O[C@H]1C(=O)[C@]2(C)[C@@H](OC(=O)OCCC(O)CO)C[C@H]3OC[C@@]3(OC(C)=O)[C@H]2[C@H](OC(=O)c2ccccc2)[C@]2(O)C[C@H](OC(=O)[C@H](O)[C@@H](NC(=O)c3ccccc3)c3ccccc3)C(C)=C1C2(C)C (some centres undefined) with SR?
A) < 0.01 µM (active)

Q) Would you please give the reported GI50 of COCC1C(=O)c2cc3c(cc2C12C=CC1(C=C2)OCCO1)OCO3 (centres undefined) with SR?
A) 1.82 µM (inactive)

Q) Would you please give the reported GI50 of Cc1nc2ccc(S(=O)(=O)NS(=O)(=O)c3ccc(-c4ccccc4)cc3)cc2c(=O)n1NS(=O)(=O)c1ccc(-c2ccccc2)cc1 with SR?
A) > 100 µM (inactive)

* * *

- System: ACHN
- test-method-notes: NCI tumour cell line growth inhibition, 48 h
Activity calls are given as the source filed them. Rule as the data show it: active = GI50 up to about 1.1 µM and inactive = higher.
measure: GI50

Examples with answers:
[
  {
    "compound": "COC(=O)C1Cc2cc3c(cc2C1)CCC3",
    "target-entity": "ACHN",
    "GI50": "> 100 µM (inactive)"
  },
  {
    "compound": "Cc1ccc(S(=O)(=O)N/N=C\\c2c3ccccc3[n+](C)c3ccccc23)cc1",
    "target-entity": "ACHN",
    "GI50": "41.9 µM (inactive)"
  },
  {
    "compound": "NCCCCN(CCCN)C(=O)c1ccccc1",
    "target-entity": "ACHN",
    "GI50": "> 100 µM (inactive)"
  },
  {
    "compound": "CCOC(=O)C1(C#N)C(C#N)(C#N)C1(C#N)C#N",
    "target-entity": "ACHN",
    "GI50": "> 100 µM (inactive)"
  },
  {
    "compound": "Cc1cc(C)nc(NS(=O)(=O)c2ccc(Nc3c4ccccc4nc4c(C(=O)NCCN(C)C)ccc(Cl)c34)cc2)n1",
    "target-entity": "ACHN",
    "GI50": "2.02 µM (inactive)"
  }
]

Q) Consider the compound O=C(c1ccc2ccccc2c1O)N1CCCCC1 . State its measured GI50.
A) > 100 µM (inactive)

Q) Consider the compound CC1CCC2(OCCO2)[C@]2(C)CC(O)C(=O)C=C12 (stereo partly drawn) . State its measured GI50.
A) > 100 µM (inactive)

Q) Consider the compound C=C1c2nc3ccccc3n2C=C(c2ccc(OC)cc2)N1c1ccc(OCCN2CCOCC2)cc1 . State its measured GI50.
A) 46.9 µM (inactive)

Q) Consider the compound COC(=O)/C(C#N)=C1\CCC(Nc2cccc(C(F)(F)F)c2)N1C (stereo not drawn) . State its measured GI50.
A) 61.8 µM (inactive)
